The measurements presented in this section are drawn from PubChem BioAssay (NCI).

Tested on: OVCAR-8 ovarian
Test: NCI-60 one-dose screen, 48 h (100 = growth as untreated, 0 = no growth, -100 = all killed)
Conditions: 10 µM unless noted
Procedure: Growth inhibition of the OVCAR-8 human tumor cell line is measured as a screen for anti-cancer activity. Cells are grown in 96 well plates and exposed to the test compound for 48 hours. Compounds are tested at a single concentration, which is 10^-5 M for most compounds. The reported endpoint is percent growth (GI% or GIPRCNT), where numbers from 0 - 100% represent growth inhibition, and numbers from -100% - 0 represent cell death. For example, a value of 40 represents 60% growth inhibition. […]
This is part of a sample that, as a whole, favours compounds with a hit. Of some 83,000 tested, about 20% had one in any assay. The source made the active and inactive calls. How the source made its calls: active means growth percent below 10; inactive means the rest.
growth values, listed per item
endpoint: growth

INSERT INTO assay_data (molecule, result) VALUES
  ('COc1cc(/C=C2\SC(=O)NC2=O)ccc1OCC(=O)Nc1ccc(C(=O)/C=C/c2cc3ccccc3nc2Cl)cc1', '84% (inactive)'),
  ('CC(c1ccccc1)N1C(=O)/C(=C/c2csc(C#N)n2)SC1=S (stereo not given)', '93.4% (inactive)'),
  ('O=C1c2c(c3c4cc(Br)ccc4[nH]c3c3ccc4ccccc4c23)C(=O)N1CCN1CCCCC1', '-51.8% (active)'),
  ('CS(=O)(=O)c1nccc(-c2c(-c3ccc(F)c(OCc4ccccc4)c3)nc3sccn23)n1', '99.6% (inactive)'),
  ('COc1cc2oc(-c3cccc(NC(=O)c4cc(NC(=O)[C@H](C)N)ccc4Cl)c3)cc(=O)c2c(OC)c1OC', '69% (inactive)');

###

tested on: SR leukemia; assay: NCI-60 one-dose screen, 48 h (100 = growth as untreated, 0 = no growth, -100 = all killed); conditions: 10 µM unless noted
This is part of a sample that, as a whole, favours compounds with a hit. Of some 83,000 tested, about 20% had one in any assay.
growth values, listed per item
endpoint: growth (%)

INSERT INTO measurements (compound, number) VALUES
  ('CNC(=O)c1c(NC(=O)c2ccc(F)cc2F)sc2c1CCC(=O)C2', 1.58),
  ('C#C[C@]1(O)CC[C@H]2[C@@H]3CC=C4c5sc(-c6ccc(OC)cc6)nc5CC[C@]4(C)[C@H]3CC[C@@]21C', 23.5),
  ('CC(c1ccccc1)N1C(=O)/C(=C/c2csc(C#N)n2)SC1=S (stereo not drawn)', 48.9);

###

system: SR leukemia; assay: NCI-60 one-dose screen, 48 h (100 = growth as untreated, 0 = no growth, -100 = all killed); details: 10 µM unless noted
Compounds without any hit were thinned out: in the full panel of roughly 83,000, 20% have a hit.
growth values, listed per item
endpoint: growth (%)

INSERT INTO assay_data (molecule, endpoint, number) VALUES
  ('O=C1c2c(O)cc(O)cc2O[C@@H](c2ccc(O)cc2)[C@@H]1c1c(O)cc(O)c2c(=O)cc(-c3ccc(O)c(O)c3)oc12', 'growth', 103),
  ('Oc1ccccc1/C=N/Nc1nc(N/N=C/c2ccccc2O)nc(N2CCOCC2)n1', 'growth', 16),
  ('Oc1ccc(CSc2nnc(-c3ccncc3)o2)c2cccnc12', 'growth', 50.4),
  ('Nc1ccc(-c2nnc(SCc3ccc(O)c4ncccc34)o2)cc1', 'growth', 18.8),
  ('Cn1nc(Nc2ccccc2)c(C(=O)NN)c1N', 'growth', 107),
  ('C#C[C@]1(O)CC[C@H]2[C@@H]3CC=C4c5sc(Nc6ccncc6)nc5CC[C@]4(C)[C@H]3CC[C@@]21C', 'growth', 4.33),
  ('CCN(CC)Cc1c(-c2cccc(OC(F)(F)F)c2)[nH]c2ccc(N3CCCC3)cc2c1=O', 'growth', 91.4),
  ('CN1CCN(Cc2ccc(NC(=O)c3cncc(C#Cc4cnc5ccc(NC6CCOCC6)nn45)c3)cc2C(F)(F)F)CC1', 'growth', -37.8),
  ('COc1ccc(-c2nn(-c3ccccc3)cc2/C=C/C(=O)c2ccc(NC(=O)CCCCCCC(=O)NO)cc2)cc1', 'growth', 110),
  ('CCOC(=O)c1c(Nc2ccccc2)nn2c(-c3ccc(Br)cc3)ccnc12', 'growth', 70.7),
  ('O=c1c2ccccc2nc(COc2ccccc2)n1/N=C/C=C/c1ccccc1', 'growth', 85.7),
  ('CS(=O)c1nccc(-c2c(-c3ccc(F)c(OCc4ccc(F)cc4)c3)nc3sccn23)n1 (stereo not drawn)', 'growth', -22.2),
  ('Cc1cn(-c2cc(NC(=O)c3cncc(C#Cc4cnc5ccc(O[C@@H]6CCOC6)nn45)c3)cc(C(F)(F)F)c2)cn1', 'growth', -35.6),
  ('CCN1C/C(=N\S(=O)(=O)c2ccccc2)N(CC)C1=S', 'growth', 101),
  ('NC(=O)N1N=C(c2cc3ccccc3oc2=O)CC1c1cn(-c2ccccc2)nc1-c1ccc(Cl)cc1 (stereo not drawn)', 'growth', 44.2),
  ('C#C[C@]1(O)CC[C@H]2[C@@H]3CC=C4c5sc(Nc6cc(OC)ccc6OC)nc5CC[C@]4(C)[C@H]3CC[C@@]21C', 'growth', 3.13),
  ('Clc1ccc(-c2nc3ccc(/C(=N\N=C\c4ccccc4)c4ccccc4)cc3[nH]2)cc1', 'growth', 72.9),
  ('CN1CCN(c2ccc(NC(=O)Nc3ccc4c(ccn4-c4cccc(C(N)=O)n4)c3)cc2C(F)(F)F)CC1', 'growth', 14.6);

###

system: 786-0 renal; assay: NCI-60 one-dose screen, 48 h; conditions: 10 µM unless noted
This is part of a sample that, as a whole, favours compounds with a hit. Of some 83,000 tested, about 20% had one in any assay. The source made the active and inactive calls. Rule for the calls: active = growth percent below 10; inactive = the rest.
Classes used: active, inactive

INSERT INTO assay_data (molecule, answer_label) VALUES
  ('CCOC(=O)C1=C(C)Nc2nc3ccccc3n2C1c1ccccc1 (configuration not stated)', 'inactive'),
  ('O=C(Nc1cccc(-c2nc(-c3ccc(NC(=O)c4cccs4)cc3Cl)no2)c1)Nc1ccc(NC(=O)C2CC2)c(C(F)(F)F)c1', 'active'),
  ('Cc1nn(-c2ccc(Cl)cc2)c(C)c1N=Nc1ccc2oc(=O)ccc2c1', 'inactive'),
  ('COc1ccc(-c2ccnc3c(C#N)c(Nc4ccccc4)nn23)cc1OC', 'inactive'),
  ('COc1ccc(-c2cc(-c3cccc4ccccc34)n3c(n2)nc2ccccc23)cc1', 'inactive'),
  ('C#CCOc1ccc(C(Nc2ccc(Cl)cc2)c2nnnn2C2CCCCC2)cc1 (configuration not stated)', 'inactive'),
  ('Cc1cn(-c2cc(NC(=O)c3cncc(C#Cc4cnc5ccc(O[C@@H]6CCOC6)nn45)c3)cc(C(F)(F)F)c2)cn1', 'active'),
  ('CCCCCCNC(=O)Oc1ccc(/C(=C(/C)c2ccccc2)c2ccc(OCCN(C)C)cc2)cc1', 'inactive'),
  ('COc1cc(-c2noc(C[C@@H](NC(=O)OCc3ccccc3)C(C)C)n2)cc(OC)c1OC', 'inactive'),
  ('CC(C)Sc1nc(NC2CC2)c(C#N)c(-c2ccccc2)n1', 'inactive'),
  ('O=C(O)CNS(=O)(=O)c1ccc(Oc2ccc(S(=O)(=O)NCC(=O)O)cc2)cc1', 'inactive'),
  ('CC1(C)CC[C@]2(C(=O)N3CCCN(CC#N)CC3)CC[C@]3(C)C(=CC[C@@H]4[C@@]5(C)CC[C@H](O)C(C)(C)[C@@H]5CC[C@]43C)[C@H]2C1', 'inactive'),
  ('CCNCc1c(-c2cccc(OC(F)(F)F)c2)[nH]c2ccc(N3CCCC3)cc2c1=O', 'inactive'),
  ('C#C[C@]1(O)CC[C@H]2[C@@H]3CC=C4c5sc(C6CCOCC6)nc5CC[C@]4(C)[C@H]3CC[C@@]21C', 'inactive'),
  ('COc1ccc(-c2oc3cc(O)cc(O)c3c(=O)c2OC)cc1O', 'inactive'),
  ('C/C(=N/Nc1nc(N/N=C(/C)c2ccc([N+](=O)[O-])cc2)nc(N2CCOCC2)n1)c1ccc([N+](=O)[O-])cc1', 'inactive'),
  ('CC(C)C[C@H]1C(=O)O[C@H](C(C)C)C(=O)N(C)[C@@H](C(C)C)C(=O)O[C@H](C(C)C)C(=O)N(C)[C@@H](C(C)C)C(=O)O[C@H](C(C)C)C(=O)N1C', 'inactive');

###

test system: RPMI-8226 leukemia; assay: NCI-60 one-dose screen, 48 h (100 = growth as untreated, 0 = no growth, -100 = all killed); conditions: 10 µM unless noted
Compounds without any hit were thinned out: in the full panel of roughly 83,000, 20% have a hit.
# growth binned as LOW: < 10%; MID: ≥ 10% and < 40%; HIGH: ≥ 40%

INSERT INTO results (compound, answer_label) VALUES
  ('COc1cc2c3c(n(CCCNC4CCC4)c(=O)c2cc1OC)-c1cc2c(cc1C3=O)OCO2', 'LOW'),
  ('Cn1c2ccccc2c2c3c(c4c5ccc(Br)cc5oc4c21)C(=O)N(O)C3=O', 'HIGH'),
  ('Cc1ccc(/C=C/CC(=O)Nc2ccc(C(=O)Nc3ccc(F)cc3N)cc2)cn1', 'MID'),
  ('COc1ccc([C@@H]2[C@@H](O)C(=O)N2c2cc(OC)c(OC)c(OC)c2)cc1Cl', 'MID'),
  ('NS(=O)(=O)c1ccc(Nc2nc(N/N=C/c3ccc([N+](=O)[O-])cc3)nc(Nc3ccccc3)n2)cc1', 'HIGH'),
  ('CCCC(=O)NC(c1cccnc1)c1cc(Cl)c2cccnc2c1O (centres undefined)', 'MID'),
  ('Cc1ccc(/C=C/CC(=O)Nc2ccc(C(=O)Nc3ccc(F)cc3N)nc2)cn1', 'LOW'),
  ('CCC(CC)n1c(=O)c(SC2=NC3C(NN2)N(CC)C(=O)N3CC)c(C(=O)O)c2ccccc21 (centres undefined)', 'MID'),
  ('Cc1ccc(NC(=O)c2ccc(CN3CCN(C)CC3)c(C(F)(F)F)c2)cc1Oc1ccc(-c2[nH]nc3ncnc(N)c23)cc1', 'MID'),
  ('COc1cc(-c2noc(C[C@@H](NC(=O)OCc3ccccc3)C(C)C)n2)cc(OC)c1OC', 'HIGH'),
  ('Cc1cc2nc(C(Cl)Cl)nc(-c3ccco3)n2n1', 'HIGH'),
  ('COc1ccc(-c2nnc(SCc3ccc(O)c4ncccc34)n2-c2ccccc2)cc1', 'MID'),
  ('O=C(Nc1cc(F)cc2cccnc12)c1cnc(N2CCOCC2)cn1', 'HIGH'),
  ('CCN1C(=O)N(CC)C2SC(N/N=C/c3cccs3)=NC21 (centres undefined)', 'MID'),
  ('C#C[C@]1(O)CC[C@H]2[C@@H]3CC=C4c5sc(Nc6cc(Cl)ccn6)nc5CC[C@]4(C)[C@H]3CC[C@@]21C', 'LOW'),
  ('O=C(NCCCNc1cc(-c2cn(-c3ccccc3)nc2-c2cccc(O)c2)ccn1)Nc1ccc(F)cc1', 'LOW'),
  ('COc1ccc2c(c1)c(-c1nn3c(=O)cc(-c4ccccc4)nc3s1)cn2C', 'HIGH'),
  ('O=C1Nc2cc(OC(F)(F)F)ccc2Oc2ccc(-c3ccnc(N4CCNCC4)c3)cc21', 'LOW');
